MEASUREMENT_DESCRIPTION: Dog cassette dosing pharmacokinetics
Format: in vivo, beagle dogs
EXPERIMENTAL_PARAMETERS: male, beagle, plasma, IV, read-out: t½ (converted)
Description: Non-naïve male beagle dogs (8 months to 3 years of age, body weight 8-14 kg) sourced from Jiangsu Johnsen Bioresource CO. and/or Beijing Rixinkeji CO., LTD and/or Beijing Marshall Biotechnology CO., LTD were used in this study. […] Concentrations of IV dose was measured at the end of the study. PK parameters were calculated using the nominal dose values if the measured values were within 20% of the nominal values. […] Plasma samples were analyzed for compound concentrations using the LC/MS/MS method. […]
Tick MET if half-life is 9 h or greater. Tick NOT MET if half-life is less than 9 h.

C[C@H]1CC[C@H](N2CC(=O)N(Cc3ccc(F)cc3)C3(CN(c4cccnn4)C3)C2=O)CC1: NOT MET
CC[C@H]1CC[C@H](N2CC(=O)N(Cc3ccc(Cl)cc3)C3(CN(C(N)=O)C3)C2=O)CC1: MET
C[C@H]1CC[C@H](N2CC(=O)N(Cc3ccc(F)c(F)c3)C3(CN(c4cccnn4)C3)C2=O)CC1: NOT MET
C[C@H]1CC[C@H](N2CC(=O)N(Cc3ccc(Cl)cc3)C3(CN(c4cccnn4)C3)C2=O)CC1: MET
C[C@H]1CC[C@H](N2CC(=O)N(Cc3ccc(F)c(F)c3)C3(CN(C(N)=O)C3)C2=O)CC1: MET

Confirm if half-life reported for the compound "CC[C@H]1CC[C@H](N2CC(=O)N(Cc3ccc(F)cc3)C3(CN(C(N)=O)C3)C2=O)CC1" is 9 h or above.
NOT MET

Textbook exercise: given the entry "CCC(CC)N1CC(=O)N(Cc2ccc(F)c(F)c2)C2(CN(c3cccnn3)C2)C1=O" , state whether its half-life is greater than or equal to 9 h.
NOT MET

// inclusive: half-life at least 9 h? input: "C[C@H]1CC[C@H](N2CC(=O)N(Cc3ccc(F)c(Cl)c3)C3(CN(C(N)=O)C3)C2=O)CC1"
MET

====

TARGET_UNDER_TEST: CYP2C19 (Homo sapiens)
Construct: Pooled human microsomes and selective CYP probe substrates were used; from tissue; host or cells: pooled human liver microsomes
Sequence (P33261 whole entry): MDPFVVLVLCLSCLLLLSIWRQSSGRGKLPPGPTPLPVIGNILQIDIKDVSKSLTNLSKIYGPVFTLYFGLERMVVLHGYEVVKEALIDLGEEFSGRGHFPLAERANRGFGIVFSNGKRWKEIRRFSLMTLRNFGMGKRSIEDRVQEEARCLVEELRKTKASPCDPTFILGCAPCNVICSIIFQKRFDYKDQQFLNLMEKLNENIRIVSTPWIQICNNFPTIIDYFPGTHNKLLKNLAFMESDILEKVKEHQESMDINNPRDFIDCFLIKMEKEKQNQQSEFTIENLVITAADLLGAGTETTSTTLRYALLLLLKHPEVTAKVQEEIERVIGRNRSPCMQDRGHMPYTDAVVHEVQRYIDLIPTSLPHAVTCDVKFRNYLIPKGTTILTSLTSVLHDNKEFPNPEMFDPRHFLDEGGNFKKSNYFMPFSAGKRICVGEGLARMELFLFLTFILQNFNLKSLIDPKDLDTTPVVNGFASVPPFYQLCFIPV
MEASUREMENT_DESCRIPTION: Time-dependent inhibition of CYP2C19 in human liver microsomes
Format: in vitro ADME
EXPERIMENTAL_PARAMETERS: pooled human liver microsomes; CYP2C19, 50 μM, human liver microsomes, time zero; read-out: % Activity NADPH T0
PARAMETER: activity at 0 min, 50 µM (%)
Answers are plain numbers, in %.

Solved entries (count: 5):
CC(C)N1CC(=O)N(Cc2ccc(C(F)(F)F)cc2)C2(CN(c3cccnn3)C2)C1=O: 113
C[C@H]1CC[C@H](N2CC(=O)N(Cc3ccc(F)c(F)c3)C3(CN(C(N)=O)C3)C2=O)CC1: 102
C[C@H]1CC[C@H](N2CC(=O)N(Cc3ccc(F)c(Cl)c3)C3(CN(C(N)=O)C3)C2=O)CC1: 82
Cc1cc(CN2C(=O)CN([C@H]3CC[C@H](C)CC3)C(=O)C23CN(C(N)=O)C3)ccc1F: 100
C[C@H]1CC[C@H](N2CC(=O)N(Cc3ccc(Cl)cc3)C3(CN(C(N)=O)C3)C2=O)CC1: 91

Please look at the following compound next.
Request the reported activity at 0 min, 50 µM associated with "CC(C)N1CC(=O)N(Cc2ccc(Cl)c(F)c2)C2(CN(c3cccnn3)C2)C1=O"
93
